- method_summary: Microsomal stability assay
- Format: in vitro ADME
- cond: 30 min; 5 μM compound, 1 mg/mL liver microsome protein, 37° C.; species not given
assay_metric: Microsomal Stability (% remaining after 30 min.) (%)
Respond with the bare value in %.

Reference set (3 entries):
| molecule | measurement |
| --- | --- |
| Cc1cc(Nc2cc(N3CCC3)nc(Sc3ccc(NC(=O)c4cccc(Cl)c4)cc3)n2)n[nH]1 | 94 |
| Cc1cc(Nc2cc(N3CCC3)nc(Sc3ccc(NC(=O)c4ccccc4C)cc3)n2)[nH]n1 | 98 |
| O=C(Nc1ccc(Sc2nc(Nc3cc(C4CC4)[nH]n3)cc(N3CCC3)n2)cc1)c1ccccc1Cl | 93 |

Ask: Returns the measured Microsomal Stability (% remaining after 30 min.) for the input compound. Input: COc1cccc(C(=O)Nc2ccc(Sc3nc(Nc4cc(C)n[nH]4)cc(N4CCC4)n3)cc2)c1
Result: 89

* * *

- assay_target: MELK (Homo sapiens)
- Sequence (Q14680 whole entry, species assumed): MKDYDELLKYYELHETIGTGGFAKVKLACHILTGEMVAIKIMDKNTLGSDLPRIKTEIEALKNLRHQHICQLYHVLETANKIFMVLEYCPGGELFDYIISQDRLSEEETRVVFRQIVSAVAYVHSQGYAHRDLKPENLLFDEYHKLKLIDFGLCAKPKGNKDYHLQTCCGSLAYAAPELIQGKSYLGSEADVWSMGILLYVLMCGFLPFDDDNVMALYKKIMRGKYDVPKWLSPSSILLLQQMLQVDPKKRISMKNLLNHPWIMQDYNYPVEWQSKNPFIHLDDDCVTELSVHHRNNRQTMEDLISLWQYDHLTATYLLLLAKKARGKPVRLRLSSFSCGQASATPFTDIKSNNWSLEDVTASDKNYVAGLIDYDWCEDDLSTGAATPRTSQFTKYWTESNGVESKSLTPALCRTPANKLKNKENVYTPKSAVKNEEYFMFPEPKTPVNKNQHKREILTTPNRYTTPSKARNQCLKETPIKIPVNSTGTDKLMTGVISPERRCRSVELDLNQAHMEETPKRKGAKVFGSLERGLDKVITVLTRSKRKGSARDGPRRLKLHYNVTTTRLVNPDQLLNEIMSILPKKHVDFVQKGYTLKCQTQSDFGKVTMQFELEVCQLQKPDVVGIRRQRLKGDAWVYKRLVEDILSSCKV
assay_metric: Ki (nM)
State just the number; it will be interpreted in nM.

Ask: What value of Ki has been reported for the following compound? Cc1cc(Nc2cc(N3CCC3)nc(Sc3ccc(NC(=O)c4ccccc4Cl)cc3)n2)[nH]n1 [Compound I-1]
Result: 17

* * *

- assay_target: Aurora-2 (Aurora A) (Homo sapiens, UniProt O14965)
- Sequence (O14965 whole entry): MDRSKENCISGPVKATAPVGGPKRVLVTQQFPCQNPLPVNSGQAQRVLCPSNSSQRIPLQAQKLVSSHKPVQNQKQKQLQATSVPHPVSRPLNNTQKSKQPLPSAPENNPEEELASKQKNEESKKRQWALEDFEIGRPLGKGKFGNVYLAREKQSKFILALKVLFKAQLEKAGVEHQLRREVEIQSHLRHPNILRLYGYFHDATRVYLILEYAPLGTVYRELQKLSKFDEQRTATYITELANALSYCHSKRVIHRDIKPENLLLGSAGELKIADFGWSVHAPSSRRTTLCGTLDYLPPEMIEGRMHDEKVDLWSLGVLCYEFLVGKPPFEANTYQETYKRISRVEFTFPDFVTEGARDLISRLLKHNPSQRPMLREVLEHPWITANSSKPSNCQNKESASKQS
- method_summary: Aurora-2 (Aurora A) inhibition assay, coupled enzyme
- Format: biochemical
- cond: 400 μM ATP, 570 μM Kemptide, 30° C., 40 nM Aurora-2; read-out: Aurora A Ki
Catalogue of compounds with associated pKi
// scale note: pKi = -log10(conc_M); give the bare number

| molecule | measurement |
| --- | --- |
| Cc1cc(Nc2cc(N3CCC3)nc(Sc3ccc(NC(=O)c4ccccc4F)cc3)n2)[nH]n1 | 8.66 |

Ask: What pKi value was documented for this compound, Cc1cc(Nc2cc(N3CCC3)nc(Sc3ccc(NC(=O)c4ccccc4C)cc3)n2)[nH]n1 ?
Result: 9.06

Ask: Next compound up: COc1cccc(C(=O)Nc2ccc(Sc3nc(Nc4cc(C)n[nH]4)cc(N4CCC4)n3)cc2)c1
Result: 9.22

Ask: Could you do the same for O=C(Nc1ccc(Sc2nc(Nc3cc(C4CC4)[nH]n3)cc(N3CCC3)n2)cc1)c1ccccc1Cl , please?
Result: 9.19

* * *

- method_summary: Microsomal stability assay
- Format: in vitro ADME
- cond: 60 min; 5 μM compound, 1 mg/mL liver microsome protein, 37° C.; species not given
Measured Microsomal Stability (% remaining after 60 min.) accompanies every entry in the list below.
Quick note: unit goes after the number.

| compound | measurement |
| --- | --- |
| Cc1cc(Nc2cc(N3CCC3)nc(Sc3ccc(NC(=O)c4ccccc4C(F)(F)F)cc3)n2)[nH]n1 [Compound I-14] | 78% |
| CCc1cc(Nc2cc(N3CCC3)nc(Sc3ccc(NC(=O)c4ccccc4Cl)cc3)n2)n[nH]1 [Compound I-16] | 63% |
| Cc1cc(Nc2cc(N3CCC3)nc(Sc3ccc(NC(=O)c4c(Cl)cccc4Cl)cc3)n2)n[nH]1 [Compound I-11] | 69% |

Below: the item to evaluate.
Ask: Value lookup for Microsomal Stability (% remaining after 60 min.); key = Cc1cc(Nc2cc(N3CCC3)nc(Sc3ccc(NC(=O)c4c(F)cccc4F)cc3)n2)[nH]n1 [Compound I-2]
Result: 77%
